Target: GPR68/OGR1 (Homo sapiens)
Construct: host or cells: Chem-1 (CHEM1-OGR1) cells
Assay: CHEM1-OGR1 cells Fluo-8 calcium assay, acidified media pH 6.4
Type: cell-based
Conditions: concentration causing 50% effective inhibition of calcium response to pH 6.4; read-out: EC50
Recorded pEC50 by entry
Remember the convention: pEC50 equals -log10 of concentration in molar.

Past entries and their recorded results:
CCc1ccc2c(c1)C1(NN=C(c3ccccc3)S1)C(=O)N2 (stereo not shown) ... 6.15
COc1ccc2c(c1)C1(NN=C(c3ccnc(OC)c3)S1)C(=O)N2 (stereo not shown) ... 5.45
COc1ccc2c(c1)C1(NN=C(c3ccc(Cl)cc3)S1)C(=O)N2 (stereo not shown) ... 6.17
CCc1ccc2c(c1)C1(NN=C(c3ccnc(OC)c3)S1)C(=O)N2 (stereo not shown) ... 5.85

Q: Quote pEC50 reported for O=C1Nc2ccccc2C12NN=C(c1ccc(F)cc1)S2 (stereo not shown) please.
A: 5.40

Q: Quote pEC50 reported for O=C1Nc2ccc(F)cc2C12NN=C(c1ccc(Cl)cc1)S2 (stereo not shown) please.
A: 5.74

Q: Quote pEC50 reported for COc1ccc(C2=NNC3(S2)C(=O)Nc2ccc(F)cc23)cc1 (stereo not shown) please.
A: 6.12

Q: Quote pEC50 reported for O=C1Nc2ccc(F)cc2C12NN=C(c1cccnc1)S2 (stereo not shown) please.
A: 5.45

Q: Quote pEC50 reported for CCc1ccc2c(c1)C1(NN=C(c3ccc(C(F)(F)F)nc3)S1)C(=O)N2 (stereo not shown) please.
A: 4.98

Q: Quote pEC50 reported for COc1ccc2cc(C3=NNC4(S3)C(=O)Nc3ccc(F)cc34)ccc2c1 (stereo not shown) please.
A: 6.18

Q: Quote pEC50 reported for O=C1Nc2ccc(F)cc2C12NN=C(c1cccc3cccnc13)S2 (stereo not shown) please.
A: 5.83

Q: Quote pEC50 reported for COc1ccc2c(c1)C1(NN=C(c3ccc(C(F)(F)F)nc3)S1)C(=O)N2 (stereo not shown) please.
A: 5.80

Q: Quote pEC50 reported for O=C1Nc2ccc(F)cc2C12NN=C(c1ccccc1)S2 (stereo not shown) please.
A: 5.55

Q: Quote pEC50 reported for Cc1ccc(C2=NNC3(S2)C(=O)Nc2ccc(F)cc23)cc1 (stereo not shown) please.
A: 6.11

Q: Quote pEC50 reported for COc1ccc2c(c1)NC(=O)C21NN=C(c2ccc3ncccc3c2)S1 (stereo not shown) please.
A: 5.93

Q: Quote pEC50 reported for COc1ccc2cc(C3=NNC4(S3)C(=O)Nc3ccc(Cl)cc34)ccc2c1 (stereo not shown) please.
A: 7.05

Q: Quote pEC50 reported for CCc1ccc2c(c1)C1(NN=C(c3cccc4ccccc34)S1)C(=O)N2 (stereo not shown) please.
A: 6.51

Q: Quote pEC50 reported for COc1ccc(C2=NNC3(S2)C(=O)Nc2ccc(OC)cc23)cc1 (stereo not shown) please.
A: 6.58

* * *

Molecular target: GPR68/OGR1 (Homo sapiens, UniProt Q15743)
Construct: host or cells: Chem-1 (CHEM1-OGR1) cells
Sequence (Q15743 whole entry): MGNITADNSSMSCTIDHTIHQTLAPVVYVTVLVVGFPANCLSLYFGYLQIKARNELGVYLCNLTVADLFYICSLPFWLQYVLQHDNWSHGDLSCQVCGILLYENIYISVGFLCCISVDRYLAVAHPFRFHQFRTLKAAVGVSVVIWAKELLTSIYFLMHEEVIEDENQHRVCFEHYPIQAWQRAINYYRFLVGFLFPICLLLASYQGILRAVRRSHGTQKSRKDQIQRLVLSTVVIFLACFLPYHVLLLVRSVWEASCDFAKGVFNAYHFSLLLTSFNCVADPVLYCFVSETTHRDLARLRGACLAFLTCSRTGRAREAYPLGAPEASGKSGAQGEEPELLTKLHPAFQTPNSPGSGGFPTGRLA
Experiment: CHEM1-OGR1 cells Fluo-8 calcium assay, acidified media pH 6.4
Format: cell-based
Conditions: concentration causing 50% effective inhibition of calcium response to pH 6.4; read-out: EC50
pEC50: −log10 of the molar value.
quantity: pEC50

Past entries and their recorded results:
CCc1ccc2c(c1)C1(NN=C(c3ccc4cc(OC)ccc4c3)S1)C(=O)N2 (stereo not drawn) ... < 5.00
CC(C)=CCN1C(=O)C2(NN=C(c3cccc4ccccc34)S2)c2ccccc21 (stereo not drawn) ... < 5.00

Q: Quote pEC50 reported for COc1ccc2cc(C3=NNC4(S3)C(=O)N(CC=C(C)C)c3ccccc34)ccc2c1 (stereo not drawn) please.
A: < 5.00
